This collection of values is drawn from BindingDB's records for doi:10.1021/jm00145a012.

target: UniProt P00376; experiment: In vitro inhibitory concentration against beef liver dihydrofolate reductase
Sequence (P00376 whole entry, looked up): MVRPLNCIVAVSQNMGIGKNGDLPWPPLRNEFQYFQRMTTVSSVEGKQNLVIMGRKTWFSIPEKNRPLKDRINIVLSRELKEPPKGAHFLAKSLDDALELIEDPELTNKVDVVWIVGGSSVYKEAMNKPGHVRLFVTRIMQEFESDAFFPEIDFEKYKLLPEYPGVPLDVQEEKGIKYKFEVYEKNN

# chemical_smiles, unit_symbol, IC50
rows = [
    ("Nc1nc2ncc(CCc3ccc(C(=O)N[C@@H](CCC(=O)O)C(=O)O)cc3)cc2c(=O)[nH]1", "µM", 49),
]
